src = ChEMBL document CHEMBL1133686

Tested on: Human immunodeficiency virus 1
Test: In vitro antiviral activity against HIV-1 IIIB in C8166 (human CD4) cells.
Format: functional, organism-based
Conditions: Human immunodeficiency virus 1, C8166
Threshold-based label: EC50 under 3 µM gives yes, EC50 not under 3 µM gives no.

Hello, I'm reviewing records and need to know if EC50 of Nc1cc2c(=O)c(C(=O)O)cn(N3CCN(c4ccccn4)CC3)c2cc1Cl is below 3 µM. Could you check? no

Hello, I'm reviewing records and need to know if EC50 of Cc1c(N2CCC(C)CC2)c(N)cc2c(=O)c(C(=O)O)cn(C3CC3)c12 is below 3 µM. Could you check? no

Hello, I'm reviewing records and need to know if EC50 of Nc1cc2c(=O)c(C(=O)O)cn(C3CC3)c2cc1N1CCN(c2ccccn2)CC1 is below 3 µM. Could you check? yes

Hello, I'm reviewing records and need to know if EC50 of COc1ccccc1N1CCN(c2cc3c(cc2N)c(=O)c(C(=O)O)cn3C(C)(C)C)CC1 is below 3 µM. Could you check? no

Hello, I'm reviewing records and need to know if EC50 of Cn1cc(C(=O)O)c(=O)c2cc(F)c(N3CCN(c4ccccn4)CC3)cc21 is below 3 µM. Could you check? yes
